Test system: MOLT-4
Assay: Growth inhibition of human MOLT4 cells
Format: functional
Experimental Readout: TGI

# lookup: MOLT-4 TGI, key = "COc1cccc(CCNC[C@@H]2C(=O)O[C@H]3[C@H]2CC/C(C)=C\CC[C@@]2(C)O[C@@H]32)c1"
44.9 µM

# lookup: MOLT-4 TGI, key = "C/C1=C/CC[C@@]2(C)O[C@H]2[C@H]2OC(=O)[C@@H](CNCc3cccnc3)[C@@H]2CC1"
> 100 µM

# lookup: MOLT-4 TGI, key = "C/C1=C/CC[C@@]2(C)O[C@H]2[C@H]2OC(=O)[C@@H](CNCCCCN)[C@@H]2CC1"
46.6 µM

# lookup: MOLT-4 TGI, key = "C/C1=C/CC[C@@]2(C)O[C@H]2[C@H]2OC(=O)[C@@H](CN(C)CCO)[C@@H]2CC1"
26.7 µM

###

Tested on: MOLT-4
Assay: Growth inhibition of human MOLT4 cells
Format: functional
I'd appreciate it if you could supply TGI values for the items below.
Field format: number, assumed µM, no unit text.

Give TGI for the following molecule: "C/C1=C/CC[C@@]2(C)O[C@H]2[C@H]2OC(=O)[C@@H](CN3CCC(Cc4ccccc4)CC3)[C@@H]2CC1"
64.6

Give TGI for the following molecule: "COc1cc(CCNC[C@@H]2C(=O)O[C@H]3[C@H]2CC/C(C)=C\CC[C@@]2(C)O[C@@H]32)ccc1O"
66.2

Give TGI for the following molecule: "C/C1=C\CC[C@@]2(C)O[C@H]2[C@H]2OC(=O)[C@@H](CNCc3ccccc3)[C@@H]2CC1"
62.8

Give TGI for the following molecule: "C/C1=C/CC[C@@]2(C)O[C@H]2[C@H]2OC(=O)[C@@H](CNCCc3cccs3)[C@@H]2CC1"
74.6

Give TGI for the following molecule: "C/C1=C/CC[C@@]2(C)O[C@H]2[C@H]2OC(=O)[C@@H](CNCCc3ccccn3)[C@@H]2CC1"
48

Give TGI for the following molecule: "C/C1=C/CC[C@@]2(C)O[C@H]2[C@H]2OC(=O)[C@@H](CNCc3ccc4occc4c3)[C@@H]2CC1"
40.7

###

Tested on: CCRF-CEM
Assay: Growth inhibition of human CCRF-CEM cells
Format: functional
I'd appreciate it if you could supply TGI values for the items below.
Field format: number, assumed µM, no unit text.

Give TGI for the following compound: "C/C1=C/CC[C@@]2(C)O[C@H]2[C@H]2OC(=O)[C@@H](CNCc3ccccc3F)[C@@H]2CC1"
44

Give TGI for the following compound: "C/C1=C\CC[C@@]2(C)O[C@H]2[C@H]2OC(=O)[C@@H](CNCc3ccccc3)[C@@H]2CC1"
31.5

Give TGI for the following compound: "C/C1=C/CC[C@@]2(C)O[C@H]2[C@H]2OC(=O)[C@@H](CNCCc3c[nH]c4ccccc34)[C@@H]2CC1"
63.3

Give TGI for the following compound: "C/C1=C/CC[C@@]2(C)O[C@H]2[C@H]2OC(=O)[C@@H](CNCc3ccc(N)cc3)[C@@H]2CC1"
75.1

Give TGI for the following compound: "C/C1=C/CC[C@@]2(C)O[C@H]2[C@H]2OC(=O)[C@@H](CNCCCCN)[C@@H]2CC1"
51.7

Give TGI for the following compound: "COc1cc(CCNC[C@@H]2C(=O)O[C@H]3[C@H]2CC/C(C)=C\CC[C@@]2(C)O[C@@H]32)ccc1O"
68.3

Give TGI for the following compound: "C/C1=C/CC[C@@]2(C)O[C@H]2[C@H]2OC(=O)[C@@H](CNCCc3cccs3)[C@@H]2CC1"
58.4

Give TGI for the following compound: "C/C1=C/CC[C@@]2(C)O[C@H]2[C@H]2OC(=O)[C@@H](CN3CCC(Cc4ccccc4)CC3)[C@@H]2CC1"
32.2

###

I'd appreciate it if you could supply TGI values for the items below.
System: MOLT-4
Assay: Growth inhibition of human MOLT4 cells
Assay type: functional
Field format: number, assumed µM, no unit text.

Give TGI for the following compound: "C/C1=C/CC[C@@]2(C)O[C@H]2[C@H]2OC(=O)[C@@H](CNCc3ccc(N)cc3)[C@@H]2CC1"
95

Give TGI for the following compound: "C/C1=C/CC[C@@]2(C)O[C@H]2[C@H]2OC(=O)[C@@H](CNCc3ccccc3F)[C@@H]2CC1"
47.4

Give TGI for the following compound: "C/C1=C/CC[C@@]2(C)O[C@H]2[C@H]2OC(=O)[C@@H](CNC3CCN(Cc4ccccc4)CC3)[C@@H]2CC1"
48.2

###

Test system: CCRF-CEM
Assay: Growth inhibition of human CCRF-CEM cells
Assay type: functional
I'd appreciate it if you could supply TGI values for the items below.
Field format: number, assumed µM, no unit text.

Give TGI for the following molecule: "C/C1=C/CC[C@@]2(C)O[C@H]2[C@H]2OC(=O)[C@@H](CNCc3ccc4occc4c3)[C@@H]2CC1"
25.1

Give TGI for the following molecule: "C/C1=C/CC[C@@]2(C)O[C@H]2[C@H]2OC(=O)[C@@H](CNCCc3ccccn3)[C@@H]2CC1"
36.5

Give TGI for the following molecule: "C/C1=C/CC[C@@]2(C)O[C@H]2[C@H]2OC(=O)[C@@H](CN(C)CCO)[C@@H]2CC1"
6.79

Give TGI for the following molecule: "C/C1=C/CC[C@@]2(C)O[C@H]2[C@H]2OC(=O)[C@@H](CNC3CCN(Cc4ccccc4)CC3)[C@@H]2CC1"
56.6

Give TGI for the following molecule: "C/C1=C/CC[C@@]2(C)O[C@H]2[C@H]2OC(=O)[C@@H](CNCc3cccnc3)[C@@H]2CC1"
86.7
